target: T1, Human GPR8 receptor protein (human, UniProt P48146 1-333); experiment: competition with [125I-Tyr10]-hGPR8L(1-23), membrane fraction of GPR8 expressing CHO cells
T1 construct: Full-length receptor expressed in CHO dhfr- cells (CHO/GPR8)
T1 sequence (P48146 whole entry): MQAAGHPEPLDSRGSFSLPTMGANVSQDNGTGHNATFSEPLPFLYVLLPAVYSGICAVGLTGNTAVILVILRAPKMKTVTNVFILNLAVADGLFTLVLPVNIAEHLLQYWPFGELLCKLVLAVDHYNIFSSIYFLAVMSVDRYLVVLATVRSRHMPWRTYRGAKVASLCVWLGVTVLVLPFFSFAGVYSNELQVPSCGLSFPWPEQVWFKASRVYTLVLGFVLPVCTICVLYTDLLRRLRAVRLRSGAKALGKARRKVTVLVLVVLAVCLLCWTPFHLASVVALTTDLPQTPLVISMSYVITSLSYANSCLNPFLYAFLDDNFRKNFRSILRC
No end group written: not given here. *: point of attachment. Propanoyl(3-indol-3-yl) = O=C(CCc1c[nH]c2ccccc12)*
IC50 reference
Quick note: give the figure in nM, leave out the unit.

Solved cases below.
# Binder, IC50 [nM]
measured = [
    ("XYKHVASPRYHTVGRAAGLLMGL (N-terminal Fmoc (N-9-fluorenylmethoxycarbonyl) on Trp 1, also called Fmoc-hGPR8L(1-23); Human GPR8 ligand (1-23) modified by Fmoc) [Fmoc-added Human GPR8L (1-23)]", 0.2),
    ("YKHVASPRYHTVGRAAGLLMGL (also called hGPR8L(2-23)) [Human GPR8 ligand (2-23)]", 160),
]

Req: Using the record for WYKHVASPRYHTVGRAAGLL (also called hGPR8L(1-20)) [Human GPR8 ligand (1-20)] , report its IC50.
Resp: 0.2

Req: Entry WYKHVASPRYHTVGRAAGL (also called hGPR8L(1-19)) [Human GPR8 ligand (1-19)] please
Resp: 100

Req: Entry WYKHTASPRYHTVGRAAGLLMGL (also called pGPR8L(1-23); porcine homologue of GPR8 ligand peptide) [porcine GPR8 ligand (1-23)] please
Resp: 0.38

Req: Entry WYKHVASPRYHTVGRAAGLLXGL (methionine sulfoxide, Met(O), at position 21, also called [MET(O)]-hGPR8L(1-23)) [Human GPR8 ligand (1-23) oxidant] please
Resp: 0.31

Req: Entry RYHTVGRAAGLLMGL (also called hGPR8L(9-23)) [Human GPR8 ligand (9-23)] please
Resp: 1300

Req: Entry HVASPRYHTVGRAAGLLMGL (also called hGPR8L(4-23)) [Human GPR8 ligand (4-23)] please
Resp: 1400

Req: Entry WYKHVASPRYHTVGRAAG (also called hGPR8L(1-18)) [Human GPR8 ligand (1-18)] please
Resp: 2700

Req: Entry {Propanoyl(3-indol-3-yl)}-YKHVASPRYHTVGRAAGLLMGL (also called IndPr-hGPR8L(2-23)) [[N-3-Indolepropanoyl-Tyr^2]-human GPR8 ligand (2-23)] please
Resp: 0.28

Req: Entry WYKHVASPRYHTVGRAAGLLMGL (also called hGPR8L(1-23); Human GPR8 ligand (1-23)) [human homologue of GPR8 ligand peptide consisting of 23 residues] please
Resp: 0.25

Origin of measurements: patent US20050124539A1
